# System: HBMEC monolayer
# condition_label: OL-SS extract
endpoint_label: Detection in basolateral compartment (brain side) of HBMEC-BBB model

1) C[C@H]1[C@H](C)CC[C@]2(C)CC[C@]3(C)C(=CC[C@@H]4[C@@]5(C)CC[C@H](O)C(C)(C)[C@@H]5CC[C@]43C)[C@H]12: not detected
2) CC1(C)CC[C@]2(C)CC[C@]3(C)C(=CC[C@@H]4[C@@]5(C)CC[C@H](O)C(C)(C)[C@@H]5CC[C@]43C)[C@@H]2C1: not detected
3) C=C(C)[C@@H]1CC[C@]2(C)CC[C@]3(C)[C@H](CC[C@@H]4[C@@]5(C)CC[C@H](OC(C)=O)C(C)(C)[C@@H]5CC[C@]43C)[C@@H]12 [Lupeol acetate]: not detected
